Cited source for all entries: ChEMBL document CHEMBL3046208

Below is a list of entries, each paired with its recorded inhibition at 100 µM value.
Test system: Lactuca sativa
Method: Inhibition of germination of Lactuca sativa cv. Nigra (lettuce) at 0.1 mM after 5 days relative to untreated control
Assay type: functional
Condition: 120 h
Endpoint Name: inhibition at 100 µM

>>> reading("COc1nc(C)nc(NC(=O)NS(=O)(=O)c2ccccc2OCCCl)n1")
"> 40%"
>>> reading("COC(=O)[C@@]1(C)CCC[C@@]2(C)[C@H]1CC[C@H]1COC(=O)C[C@@H]12")
"20%"
>>> reading("COC(=O)[C@@]1(C)CCC[C@]2(C)c3cc(=O)occ3CC[C@@H]12")
"< 20%"
>>> reading("CO[C@H]1OC(=O)C=C2C1=C[C@H]1OC(=O)[C@@]3(C)CCC[C@@]2(C)[C@@H]13")
"> 40%"
>>> reading("C[C@]1(C(=O)O)CCC[C@]2(C)C3=CC(=O)OC[C@]34O[C@@H]4C[C@@H]12")
"< 20%"
>>> reading("COC(=O)[C@@]1(C)CCC[C@@]2(C)[C@H]1CC=C1COC(=O)C[C@@H]12")
"< 20%"
>>> reading("COC(=O)[C@@]1(C)CCC[C@]2(C)C3=CC(=O)O[C@H](C(C)C)C3=CC[C@@H]12")
"< 20%"
>>> reading("CO[C@@H]1OC(=O)C=C2C1=C[C@H]1OC(=O)[C@@]3(C)CCC[C@@]2(C)[C@@H]13")
"20%"
>>> reading("COC(=O)[C@@]1(C)CCC[C@]2(C)C3=CC(=O)OCC3=CC[C@@H]12")
"20%"
